# system.name: 5-hydroxytryptamine receptor 6 (Homo sapiens)
# Sequence (P50406 whole entry): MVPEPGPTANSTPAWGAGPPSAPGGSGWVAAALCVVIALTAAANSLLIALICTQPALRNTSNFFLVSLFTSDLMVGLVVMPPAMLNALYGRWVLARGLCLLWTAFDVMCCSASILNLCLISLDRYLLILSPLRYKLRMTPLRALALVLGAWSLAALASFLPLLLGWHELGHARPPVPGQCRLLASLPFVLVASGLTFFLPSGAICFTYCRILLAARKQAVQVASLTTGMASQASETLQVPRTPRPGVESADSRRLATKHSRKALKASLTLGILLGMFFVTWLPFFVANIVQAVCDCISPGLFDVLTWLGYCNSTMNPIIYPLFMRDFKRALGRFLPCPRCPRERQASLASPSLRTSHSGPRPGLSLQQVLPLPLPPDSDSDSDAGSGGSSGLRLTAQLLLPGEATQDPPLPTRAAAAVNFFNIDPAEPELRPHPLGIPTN
# run.description: Displacement of [3H]LSD form human recombinant 5HT6 receptor
Property: Ki; scope: individual compounds

{"compound": "O=C1CN(C[C@@H]2CCCc3cc(S(=O)(=O)c4cccc(F)c4)ccc32)CCN1", "Ki": "6.31 nM"}
{"compound": "CNC(=O)CNC[C@@H]1CCCc2cc(S(=O)(=O)c3cccc(F)c3)ccc21", "Ki": "1 nM"}
{"compound": "CC(C)(O)C(=O)NC[C@@H]1CCCc2cc(S(=O)(=O)c3cccc(F)c3)ccc21", "Ki": "2 nM"}
{"compound": "O=C(CO)NC[C@@H]1CCCc2cc(S(=O)(=O)c3cccc(F)c3)ccc21", "Ki": "0.1 nM"}
{"compound": "CNCC(=O)NC[C@@H]1CCCc2cc(S(=O)(=O)c3cccc(F)c3)ccc21", "Ki": "0.158 nM"}
{"compound": "CC(=O)N(C)C[C@@H]1CCCc2cc(S(=O)(=O)c3cccc(F)c3)ccc21", "Ki": "1.58 nM"}
{"compound": "CNC[C@@H]1CCCc2cc(S(=O)(=O)c3cc[nH]c3)ccc21", "Ki": "0.158 nM"}
{"compound": "CN(C)CC1CCCc2cc(S(=O)(=O)c3ccccc3)ccc21 (stereo not drawn)", "Ki": "0.0631 nM"}
{"compound": "NC[C@@H]1CCCc2cc(S(=O)(=O)c3c[nH]c4ccccc34)ccc21", "Ki": "0.0501 nM"}
{"compound": "CNCC1CCCc2cc(S(=O)(=O)c3ccccc3)ccc21 (stereo not drawn)", "Ki": "0.316 nM"}
{"compound": "O=S(=O)(c1cccc(F)c1)c1ccc2c(c1)CCC[C@H]2CN1CCCS1(=O)=O", "Ki": "31.6 nM"}
{"compound": "NS(=O)(=O)NC[C@@H]1CCCc2cc(S(=O)(=O)c3cccc(F)c3)ccc21", "Ki": "0.126 nM"}
{"compound": "COC(=O)NC[C@@H]1CCCc2cc(S(=O)(=O)c3cccc(F)c3)ccc21", "Ki": "1.58 nM"}
{"compound": "NC[C@@H]1CCCc2cc(S(=O)(=O)c3cncs3)ccc21", "Ki": "0.794 nM"}
{"compound": "N#Cc1cccc(S(=O)(=O)c2ccc3c(c2)CCC[C@H]3CN)c1", "Ki": "0.501 nM"}
{"compound": "CC(C)(C)C(=O)NC[C@@H]1CCCc2cc(S(=O)(=O)c3cccc(F)c3)ccc21", "Ki": "3.98 nM"}
{"compound": "O=C(NC[C@@H]1CCCc2cc(S(=O)(=O)c3cccc(F)c3)ccc21)c1ncc[nH]1", "Ki": "15.8 nM"}
{"compound": "CN(C[C@@H]1CCCc2cc(S(=O)(=O)c3cccc(F)c3)ccc21)C(N)=O", "Ki": "39.8 nM"}
